Molecular target: 5-HT2 receptor (Rattus norvegicus)
Construct: the thus obtained precipitate was used as P2 fraction; from tissue; host or cells: rat cerebral cortex, P2 membrane fraction
Sequence (P14842 whole entry): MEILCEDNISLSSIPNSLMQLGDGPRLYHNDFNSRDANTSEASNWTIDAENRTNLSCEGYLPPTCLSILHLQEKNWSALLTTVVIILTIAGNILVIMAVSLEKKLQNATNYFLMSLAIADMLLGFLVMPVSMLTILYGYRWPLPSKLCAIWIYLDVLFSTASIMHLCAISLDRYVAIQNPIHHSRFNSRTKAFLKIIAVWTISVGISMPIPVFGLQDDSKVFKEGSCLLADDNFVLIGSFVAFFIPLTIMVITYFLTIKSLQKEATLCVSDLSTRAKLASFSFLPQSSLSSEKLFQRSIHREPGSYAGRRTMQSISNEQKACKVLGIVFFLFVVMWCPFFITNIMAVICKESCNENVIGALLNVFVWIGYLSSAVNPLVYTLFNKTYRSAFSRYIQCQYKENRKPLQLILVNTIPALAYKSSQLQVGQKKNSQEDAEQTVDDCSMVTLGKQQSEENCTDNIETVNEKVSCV
Assay: Binding affinity for 5-HT2 receptor ([3H]ketanserin displacement, rat cerebral cortex P2 fraction)
Conditions: 1 nM [3H]ketanserin, Ki calculated from IC50
Item-by-item account of Ki
Measured Property: Ki (nM)

> print(dat)
                                   molecule  measured.property  unit.abbreviation  endpoint.result
1  COc1ccccc1N1CCN(CCCCC23CCCc4cccc(c42)NC3=O)CC1 (stereo not drawn)                 Ki                 nM               61
2  O=C1Nc2cccc3c2C1(CCCCN1CCN(c2ccccn2)CC1)CCC3 (stereo not drawn)                 Ki                 nM              120
3  COC1(c2ccccc2)CCN(CCCCC23CCCc4cccc(c42)NC3=O)CC1 (stereo not drawn)                 Ki                 nM              414

Ref: patent US6355642B1
